Hello, the source for this data is the supplement of paper PMC9262897, in case you need it.

growth values by entry
- System: E. coli TESEC Mtb Alr
- method.summary: growth (OD600 after 10 h); higher = more growth (less inhibition)
- run.conditions: arabinose 100000 nM; compound 0.1 mM; raw OD600 reference: median of DMSO wells 0.201, cell-free background 0.041
Counter-ions that a name gives are not always drawn.
Quick one: just the number, no unit, thanks!

The following compounds have reported results that may help.
compound: CCCOc1ccccc1-c1nc2[nH]nnc2c(=O)[nH]1 [Zaprinast]
number: 0.162
//
compound: O=C(N/N=C/c1ccc([N+](=O)[O-])o1)c1ccc(O)cc1 [Nifuroxazide]
number: 0.164
//
compound: CC1CCc2c(N3CCC(O)CC3)c(F)cc3c(=O)c(C(=O)O)cn1c23 (stereo unspecified) [Nadifloxacin]
number: 0.0437
//
compound: C/C(=C(\CCOP(=O)(O)O)SC(=O)c1ccccc1)N(C=O)Cc1cnc(C)nc1N [Benfotiamine]
number: 0.205
//
compound: O=c1[nH]c(=O)n([C@H]2C[C@H](O)[C@@H](CO)O2)cc1F [Floxuridine]
number: 0.052

// lookup growth for CCC(=O)OCC(=O)[C@@]1(OC(=O)CC)[C@H](C)C[C@H]2[C@H]3[C@H]([C@@H](O)C[C@@]21C)[C@@]1(C)C=CC(=O)C=C1C[C@H]3Cl [Alclometasone dipropionate]
0.226

Also, O=C1c2ccccc2C(=O)C1c1ccccc1 [Phenindione] please.
0.197

Repeat for the following compound: CC(=O)O[C@]1(C(C)=O)CC[C@H]2[C@@H]3C=C(Cl)C4=CC(=O)CC[C@]4(C)[C@H]3CC[C@@]21C [Chlormadinone acetate]
0.148

Proceed to COc1ccc(CC(C)NCC(O)c2ccc(O)c(NC=O)c2)cc1 (stereo unspecified) [Formoterol fumarate]
0.219

Please answer likewise for NC(=O)N1c2ccccc2CC(=O)c2ccccc21 [Oxcarbazepine]
0.211

Follow-up item: CC(C)NCC(O)c1ccc(O)c(O)c1 (single isomer, unassigned; (+)) [(+)-Isoproterenol (+)-bitartrate salt]
0.18

Moving on to CCN(CC)CCNC(=O)c1cc(S(C)(=O)=O)ccc1OC [Tiapride hydrochloride]
0.213

Likewise for CN(C)CCOC(c1ccc(Cl)cc1)c1ccccn1 (stereo unspecified) [Carbinoxamine maleate salt] ?
0.196

Entry to check: CC(C)C(=O)Nc1ccc([N+](=O)[O-])c(C(F)(F)F)c1 [Flutamide]
0.203

Try this compound too: O=C(Oc1cccc2cccnc12)c1ccccc1 [Benzoxiquine]
0.172

Same again, this time with CN1CCCN=C1/C=C/c1cccc(O)c1 [Oxantel pamoate]
0.226

And CC(=O)[C@H]1CC[C@H]2[C@@H]3CC=C4C[C@@H](O)CC[C@]4(C)[C@H]3CC[C@]12C [Pregnenolone] ?
0.173

Ok, now Oc1c(Cl)cc(Cl)c2cccnc12 [Chloroxine]
0.0435

Can you handle CCN(CC)C(=O)N1CCN(C)CC1 [Diethylcarbamazine citrate] next?
0.196

Cool, now N#Cc1ccc(C(c2ccc(C#N)cc2)n2cncn2)cc1 [Letrozole]
0.243

Can you check CC(C)OC(=O)C(C)(C)Oc1ccc(C(=O)c2ccc(Cl)cc2)cc1 [Fenofibrate] next?
0.143

Also check O=P(O)(O)C(O)(Cc1cccnc1)P(=O)(O)O [Risedronic acid monohydrate]
0.191

Same thing, different compound: Cn1c(NCCN(CCO)CCCc2ccc([N+](=O)[O-])cc2)cc(=O)n(C)c1=O [Nifekalant]
0.168

Moving on to the next compound: CCN(CC)CCc1nc(-c2ccccc2)no1 [Oxalamine citrate salt]
0.187

Please answer likewise for C#C[C@]1(O)CC[C@H]2[C@@H]3CCc4cc(OC)ccc4[C@H]3CC[C@@]21C [Ethynylestradiol 3-methyl ether]
0.184

---

- Test system: E. coli TESEC Mtb Alr
- method.summary: growth (OD600 after 10 h); higher = more growth (less inhibition)
- run.conditions: arabinose 10000000 nM; compound 0.1 mM; raw OD600 reference: median of DMSO wells […], cell-free background 0.052
Structures can show the parent of a compound that is named as a salt.
// reported growth for each item listed
A bare number is all that is needed in reply.

Recorded results for 3 compounds are shown here.
compound: C#C[C@]1(O)CC[C@H]2[C@@H]3CCC4=C(CCC(=O)C4)[C@H]3CC[C@@]21C [Norethynodrel]
measurement.type: growth
number: 0.17
//
compound: CN(C)CCCN1c2ccccc2CCc2ccccc21 [Imipramine hydrochloride]
measurement.type: growth
number: 0.21
//
compound: OCCN1C[C@H](O)[C@@H](O)[C@H](O)[C@H]1CO [Miglitol]
measurement.type: growth
number: 0.324

So what growth did NCCc1ccc(O)c(O)c1 [Dopamine hydrochloride] get with E. coli TESEC Mtb Alr?
0.333

What about N=C(N)NCC1COC2(CCCCC2)O1 (stereo not drawn) [Guanadrel sulfate] ?
0.324

---

- System: E. coli TESEC Mtb DapB
- method.summary: growth (OD600 after 10 h); higher = more growth (less inhibition)
- run.conditions: arabinose induction (level): Low; compound 0.1 mM; raw OD600 reference: median of DMSO wells 0.227, cell-free background 0.041
Counter-ions that a name gives are not always drawn.
measurement.type: growth
// no unit string in output, number only

Worked examples, 7 molecules total:
molecule: C=C1C[C@H]2[C@@H]3C=C(C)C4=CC(=O)CC[C@]4(C)[C@H]3CC[C@]2(C)[C@@]1(OC(C)=O)C(C)=O [Melengestrol acetate]
number: 0.211

molecule: Cc1ccc(C(=O)c2cc(O)c(O)c([N+](=O)[O-])c2)cc1
number: 0.0557

molecule: C[C@H](Cc1cc2c(c(C(N)=O)c1)N(CCCO)CC2)NCCOc1ccccc1OCC(F)(F)F
number: 0.206

molecule: CO[C@@]1(NC(=O)Cc2cccs2)C(=O)N2C(C(=O)O)=C(COC(N)=O)CS[C@@H]21 [Cefoxitin sodium salt]
number: 0.0492

molecule: NC(=O)OCC(O)COc1ccc(Cl)cc1 (stereo not drawn) [Chlorphensin carbamate]
number: 0.279

molecule: Nc1c(Br)cc(Br)cc1CN[C@H]1CC[C@H](O)CC1 [Ambroxol hydrochloride]
number: 0.221

molecule: Cc1cnc(C(=O)NCCc2ccc(S(=O)(=O)NC(=O)NC3CCCCC3)cc2)cn1 [Glipizide]
number: 0.256

# context switch: different molecule, same growth
# get_value(readout= growth, system= E. coli TESEC Mtb DapB) for NC1CCN(c2c(F)cc3c(=O)c(C(=O)O)cn(C4CC4)c3c2Cl)C1 (stereo not drawn)
0.0481

---

- Test system: E. coli TESEC Alr+ wild-type control
- method.summary: growth (OD600 after 10 h); higher = more growth (less inhibition)
- run.conditions: compound 0.1 mM; raw OD600 reference: median of DMSO wells 0.241, cell-free background 0.041
Structures can show the parent of a compound that is named as a salt.
measurement.type: growth

Solved entries (count: 4):
compound: Nc1ccc(S(=O)(=O)NC(=O)c2ccccc2)cc1 [Sulfabenzamide]
subject.of.test: E. coli TESEC Alr+ wild-type control
measurement.type: growth
result: 0.256

compound: NC(=O)OCC(COC(N)=O)c1ccccc1 [Felbamate]
subject.of.test: E. coli TESEC Alr+ wild-type control
measurement.type: growth
result: 0.24

compound: N[C@@H](Cc1ccc(O)c(O)c1)C(=O)O [Levodopa]
subject.of.test: E. coli TESEC Alr+ wild-type control
measurement.type: growth
result: 0.229

compound: CCC[C@@H]1C[C@@H](C(=O)N[C@@H]([C@H]2O[C@H](SC)[C@H](O)[C@@H](O)[C@H]2O)[C@H](C)Cl)N(C)C1 [Clindamycin hydrochloride]
subject.of.test: E. coli TESEC Alr+ wild-type control
measurement.type: growth
result: 0.0527

From here, focus on the item given below.
State the recorded growth for this entry: COC(=O)C1=C(C)NC(C)=C(C(=O)OC(C)C)C1c1cccc2nonc12 (stereo not given) [Isradipine]
0.149

---

- Tested on: E. coli TESEC Mtb Alr
- method.summary: growth (OD600 after 10 h); higher = more growth (less inhibition)
- run.conditions: arabinose 100000 nM; compound 0.1 mM; raw OD600 reference: median of DMSO wells 0.201, cell-free background 0.041
Where a name gives a salt, the structure may show the parent alone.
measurement.type: growth
Answer as a number with no unit attached.

// worked examples, growth included
compound: CCN(CC)CCCC(C)Nc1ccnc2cc(Cl)ccc12 (centres undefined) [Chloroquine diphosphate]
measurement.type: growth
number: 0.235
//
compound: CC(=O)c1ccc2c(c1)N(CCCN1CCC(CCO)CC1)c1ccccc1S2
measurement.type: growth
number: 0.222
//
compound: CNC[C@H](O)[C@@H](O)[C@H](O)[C@H](O)CO
measurement.type: growth
number: 0.212
//
compound: Cc1cc2cc3c(C)cc(=O)oc3c(C)c2o1
measurement.type: growth
number: 0.192
//
compound: c1ccc2c(c1)CCCc1cc(NCCN3CCOCC3)nnc1-2
measurement.type: growth
number: 0.17

Report growth for CN(C)CC/C=C1\c2ccccc2CSc2ccccc21 [Dosulepin hydrochloride] please.
0.211

How about this compound: CCCCOc1ccc(OCCCN2CCOCC2)cc1 [Pramoxine hydrochloride]
0.195

Similarly, CC(C)(C)C(=O)OCOC(=O)[C@@H]1N2C(=O)[C@@H](NC(=O)[C@H](N)c3ccccc3)[C@H]2SC1(C)C ?
0.298

Ok, now O=C1CCc2ccc(OCCCCN3CCN(c4cccc(Cl)c4Cl)CC3)cc2N1
0.15
